- assay summary: inhibitors of E-selectin induction by TNFa, primary screen, imaging, HUVEC, immunofluorescence, MLSMR starter and 10KST1 sets (AID 487);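 also: signal is fraction of cell area covered by stained E-selectin grains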
- measurement context: HUVEC TNFalpha-induced E-selectin immunofluorescence imaging, at 2 µM; stronger effect = higher value
metric: inhibition (%)
Entry rule: numbers only, all in %.

Name the recorded inhibition for "O=C(CN1C(=O)c2ccccc2S1(=O)=O)NCc1ccccc1Cl" .
-45.6

Name the recorded inhibition for COC(=O)NC(Nc1sc2c(c1C(N)=O)CCCC2)(C(=O)OC)C(F)(F)F (stereo unspecified) .
-59.3

Name the recorded inhibition for "Nc1nc(-c2ccc(Br)s2)c(Br)s1" .
18.6

Name the recorded inhibition for "O=c1c2ccccc2nnn1CSc1nnc2sc3ccccc3n12" .
-56

Name the recorded inhibition for Cc1nc2sc(C(c3ccc(Br)cc3)N3CC(C)OC(C)C3)c(O)n2n1 (stereo unspecified) .
-6.9

Name the recorded inhibition for Cc1ccc2nsnc2c1S(=O)(=O)N(Cc1cc2cccc(C)c2[nH]c1=O)CC1CCCO1 (stereo unspecified) .
42.1

Data origin, for the record: PubChem BioAssay
